Recorded fraction unbound, human plasma for the following compounds
metric: fraction unbound, human plasma

CC(=O)Nc1ncc(C(=O)O)s1 | 0.66
c1ccc(Oc2cccc(CN(CCN3CCOCC3)Cc3cccnc3)c2)cc1 | 0.00599
CNC(=O)C1(Cc2ccc(-c3ccncc3)cc2)CCN(Cc2cccc(F)c2)C1 (stereo unspecified) | 0.127
O=C1CN(c2ccc(Nc3nccc(C(F)(F)F)n3)cn2)CCN1 | 0.35
Nc1c(F)ccc2cnc(-n3ccc4ccncc43)cc12 | 0.0517
CC1(C)CC(=O)C2=C(C1)NC(=O)CC2c1ccc(Br)cc1 (stereo unspecified) | 0.144
O=C1NCCN(C(=O)c2ccc3nccn3c2)C1c1ccccc1C(F)(F)F (stereo unspecified) | 0.71
CNC(=O)C1(Cc2ccc(-c3cccnc3)cc2)CCN(Cc2ccc(F)cc2)C1 (stereo unspecified) | 0.105
CCCc1cc(N2CCc3c(nc(C4CC4)n3C)C2)n2ncnc2n1 | 0.476
O=C1CCCC[C@@H]2[C@H](C[C@@H](Cc3ccccc3F)N2C(=O)c2cccc3ncccc23)N1 | 0.19
O=C1NCCSc2c1sc1ccc(O)cc21 | 0.0779

====

intrinsic clearance, rat liver microsomes for assorted compounds
metric: intrinsic clearance, rat liver microsomes (mL/min/kg)

Cc1ccc(F)cc1NC(=O)c1cnc2onc(C(C)C)c2c1 | 217
O=C(NCCN1CCC(O)(c2cccc(F)c2)CC1)c1cccc(F)c1 | 245
Nc1n[nH]cc1-c1cc(Cl)ccc1Oc1cc(F)c(S(=O)(=O)Nc2cscn2)cc1Cl | 37.3
N#CC1(NC(=O)Cc2cc3c(ccc4ccccc43)o2)CCOCC1 | 705
COC(=O)c1c(C)[nH]c(C(=O)N(C)Cc2ccc(OC)c(F)c2)c1C | 591
O=S(=O)(c1cccnc1)N1CCC2(Cc3ccccc3C2)C1 | 5070
Cc1c(C(=O)Nc2cnccn2)cccc1-c1ccccn1 | 496
CC1CCC(NC(=O)c2oc3ccccc3c2CS(C)=O)CC1 (centres undefined) | 154
NCc1ccc(-n2cnc3ccccc32)cc1Cl | 36.1
CN1CCc2ccc(C(=O)NCCC(=O)Nc3cccnc3)cc21 | 86.6
O=C(Cc1ccc2c(c1)CCC2)Nc1nc2ccccc2o1 | 1540
COc1cc(F)c(NCC(=O)Nc2ccc(C)cc2)cc1OC | 269
Nc1ccc(Cl)c(NC2=NN(c3c(Cl)cc(Cl)cc3Cl)C(=O)C2)c1 | 702
COC1CCN(C(=O)Nc2cc(C(F)(F)F)cc(C(F)(F)F)c2)CC1 | 158
O=C(c1cccnc1)N1CCCC(c2cccc(-c3cccc(Cl)c3)n2)C1 (centres undefined) | 1270
Cc1c(C)n(Cc2ccccc2)c2ncnc(N)c12 | 516
Cc1n[nH]c(C)c1CCCN(C)c1cncc(C(=O)N(C)C)n1 | 529
CNC(=O)Cc1noc(-c2ccc3ncccc3c2)n1 | 21.8
O=C(Cn1c(=O)c2cccn2c2ccccc21)NCCCN1CCCC1 | 634
Cc1csc(NC(=O)c2ccc(-c3ccncc3)cc2)n1 | 305
COc1ccc(/C=C/C(=O)c2c(C)nc3ccccc3c2N)c(OC)c1 | 814
Cc1c(C(=O)NCCCN(C)C)sc2ncnc(Nc3ccc(F)cc3OC(C)C)c12 | 52.4

====

Tick Y if intrinsic clearance, human liver microsomes is 20 mL/min/kg or greater. Tick N if intrinsic clearance, human liver microsomes is less than 20 mL/min/kg.

c1ccc(-n2cc(CNc3ncccn3)cn2)cc1 | Y
COc1ccc(CN2CCN(c3cc(C)nc(N)n3)CC2)cc1OC | N
Fc1ccccc1-c1c[nH]nc1C1CCCN1Cc1ccc2ncccc2c1 (centres undefined) | Y
O=C(CN1CCCN(c2ccc(C(F)(F)F)cn2)CC1)Nc1ccccc1F | Y
Cc1cc(N2CCCC2)nc(C2CCCN(C)C2)n1 (centres undefined) | N
CN1CCc2ccc(C(=O)NCCC(=O)Nc3cccnc3)cc21 | N
Cc1nc(C)n(-c2ccccc2NC(=O)c2cc(C#N)cn2C)n1 | N
O=C(Nc1nnc[nH]1)c1ccc(C2SCCCS2)cc1 | N
Cc1cc(-c2cccc3ccnn23)nc(N2CCCC2)n1 | Y
CC(C)(C)OC(=O)c1ccc(-n2[nH]cc(-n3ccnn3)c2=O)nc1 | N
CN(Cc1cscn1)c1nc2c(cc1C#N)CCC2 | Y
COc1cccc(C)c1C(=O)N[C@H](CO)CCSC | Y
CCN(C(C)=O)c1ccc(C)cc1C(=O)O | N
CC(C)(C)c1ccc(C(O)CN2CCC(O)(c3ccc4c(c3)OCO4)CC2)cc1 (centres undefined) | Y
COCCCNc1ncc(-c2ccsc2)c(-c2nc(C)c(C)s2)n1 | Y
OCCC1(CNc2ncc(Br)cn2)CC1 | N
CSc1ccc(C(=O)Nc2cccc(C(=O)NCC(C)C)c2)cc1 | Y
O=C(Cc1cccnc1)Nc1ncccc1Cl | N
C[C@H](NC(=O)CCC(F)(F)F)C(=O)N[C@@H]1C(=O)N(CCO)c2ncccc2-c2ccccc21 | N
Cc1ccc(Nc2ccnc(Nc3ccc(C)cc3)n2)cc1 | Y
O=C(Nc1ccccc1-c1cn2c(CN3CCNCC3)csc2n1)c1cnc2ccccc2n1 | N
Cc1ccc(=O)n(CCOc2cc(F)cc(Br)c2)n1 | Y
O=C(CNc1ccc(C(=O)N2CCCC2)cc1)N1CCCCC1 | N
O=C(CCc1cccs1)Nc1ccc(N2CCOCC2)cn1 | Y

====

Class assignment keyed on intrinsic clearance, human liver microsomes, ranges zone 1 (below 20 mL/min/kg), zone 2 (20 mL/min/kg to below 50 mL/min/kg), zone 3 (50 mL/min/kg or more)

Cc1ccc2c(c1)c(Cn1ccnc1-c1cccc(C)n1)nn2C | zone 3
CC(=O)N(c1ccc(C)cc1)c1nc(Cn2ccnc2)cs1 | zone 2
CCc1nc2ccccc2n1CC(=O)N1CCNC(=O)C1 | zone 1
O=C(c1ccccc1)N1CCN(C(=O)c2ccc(-c3ccccc3Cl)o2)CC1 | zone 3
Cc1ccc(F)cc1NC(=O)c1cnc2onc(C(C)C)c2c1 | zone 2
O=C(NCC1CC1)c1ccc(-n2ccnc2)nc1 | zone 1
CCOC1CCN(C(=O)Cn2c(=O)[nH]c3ccccc32)CC1 | zone 1
Cc1noc(COc2cccnc2C)n1 | zone 1
Cc1ccc(-n2nc(C(=O)N3CC(O)C3)c3c2CCCC3)cc1 | zone 3
Cc1c(C(=O)NCC2CCSCC2)nnn1-c1cccc2cnccc12 | zone 3
CCc1nsc(N2CCS(=O)(=O)CC2)n1 | zone 1
COc1cc2c(cc1OC)-c1cc3ccc(OC)c(OC)c3c[n+]1CC2 | zone 1
N#Cc1cnc2ccccc2c1OCCO | zone 1
Cc1nn(C)cc1CNc1nc(-c2cnccn2)nc2sc3c(c12)CCCC3 | zone 3
O=C(NCC1(Sc2ccccc2)CC1)c1ccc(=O)[nH]n1 | zone 1
Cc1ccc(-c2cnn3c(O)cc(Cn4cccn4)nc23)cc1 | zone 1
COc1cccc(-c2nc(C(=O)O)cs2)c1OC | zone 1
CCOC(=O)N1CCC(Nc2nc3ccccc3s2)CC1 | zone 1
CC1CCN(C(=O)c2n[nH]c3ccccc23)CC1 | zone 2
Cc1nc(-c2ccc(C)c(O)c2)n(C(C)(C)C)n1 | zone 1
COc1ccccc1CC(=O)Nc1ncc(C)s1 | zone 1
CCOc1cc2c(cc1CCC(=O)N1CCC(Cc3ncncc3C(N)=O)CC1)CCC2 | zone 3
CCn1nccc1CNc1ncccn1 | zone 1
COCCNC(=O)CN1CCN(c2nccn2-c2cccc(Cl)c2)CC1 | zone 1
CCOC(=O)c1c(C)n(C)c2ccc(O)cc12 | zone 2

====

metric: intrinsic clearance, human liver microsomes (mL/min/kg)

CN1CCC[C@H]1C(=O)N[C@@H](CO)Cc1ccccc1 | 7.16
CCCN(CC)c1ccc(C(=O)N2CCCN(C(C)=O)CC2)cc1 | 25.7
Cc1ccc(CN(C)C(=O)c2cn(Cc3ccccc3F)nn2)cc1 | 64.8
CN(C)C(=O)OCCN1CCC(c2c[nH]c3ncccc23)CC1 | 29.6
CC(C)C[C@H](CO)Nc1nc(S[C@@H](C)c2ccccc2)nc2nc(N)sc12 | 40.2
O=C1CN(C(=O)c2ccc(Cl)cn2)CCN1CCc1ccccc1 | 7.25
O=C(Nc1ccccn1)c1ccc2c(c1)C(=O)N(C1CCCCC1)C2=O | 11.8
CC(C)(C=C(C#N)C(=O)N1CCC[C@@H](n2nc(-c3ccc(Oc4ccccc4)cc3F)c3c(N)ncnc32)C1)N1CCN(C2COC2)CC1 | 535
C=CCn1cc(CNCc2csc3ccc(Cl)cc23)c(C)n1 | 347
O=C(c1cn(Cc2cncn2Cc2ccc(Br)cc2)cc1-c1cccc2ccccc12)N1CCOCC1 | 150
CC1CCC(O)(CSc2nnnn2C2CC2)CC1 (configuration not stated) | 12.7
Cc1csc(CCNc2ncccc2C#N)n1 | 73
Cc1cc(C(=O)N(C)C2CCSCC2)c(=O)n(C)c1C | 29.1
CC(Oc1ccc(Cl)cc1)C(=O)N1CCC(n2c(=O)[nH]c3ccccc32)CC1 (configuration not stated) | 36.2
O=C(Nc1ccccc1)Nc1ccc(-c2ccc(C(=O)[C@H]3CCC[C@@H]3C(=O)O)cc2)cc1 | 11.3
CON(C)C(=O)c1cc2ccc(C(C)(C)C)cc2[nH]1 | 55
CN(Cc1ccccc1N1CCCC1)C(=O)c1cccc(Cn2ccnc2)c1 | 392
Nc1c(-c2ccc(F)cc2)ncn1Cc1ccccc1 | 14.6
O=S(=O)(NCc1n[nH]c2c1CCCCC2)c1ccc(OC(F)F)cc1 | 361
Cc1ccc(NC(=O)CN2CCCN(c3ccc(C(F)(F)F)cn3)CC2)cc1 | 126
COc1nn(C)cc1C(=O)Nc1cccc(-c2cnc3n2CCC3)c1 | 10.5
N#Cc1cc(F)ccc1Cn1ccnc1-c1ccccn1 | 20.5
CCc1ccc(CC)c(C(=O)CSc2nncs2)c1 | 219
Cn1c(=O)n(C)c2cc(CN3CCC(c4ccc(Cc5ccccc5F)cn4)CC3)ccc21 | 84.8
Cc1ccc2cc(C(=O)N(C)CCC#N)[nH]c2c1 | 61.8
CS(=O)(=O)N1CCN(Cc2cc3c(cc2O)OCO3)CC1 | 28.6
N#Cc1ccnc(Nc2ccc(F)cc2)c1 | 164
Cc1cc(N)n(-c2ncnc3sc(C)c(-c4ccc(Cl)cc4)c23)n1 | 94.2
Fc1ccccc1CNc1nc(-c2ccccc2)no1 | 24.5
CCN(CC)C(=O)c1ccc(C2=CC3(CCNCC3)Oc3cccc(O)c32)cc1 | 9
O=C(N[C@H](CO)CC1CCCCC1)c1cccc(-c2cnccn2)c1 | 198
O=C(c1n[nH]c2c1COCC2)N1CCC2(C=Cc3ccccc32)CC1 | 4.85
CN1CCNc2nc3ccccc3nc21 | 74
COc1ccc(C)cc1-n1ccc(C(=O)Nc2c3c(nn2C)CCC3)n1 | 46.5
Cc1cc(C)nc(NC(=O)N(C)C2CCC2)c1 | 92.6
